# EXPERIMENT: Cytotoxicity against human GES1 cells assessed as inhibition of cell proliferation incubated for 48 hrs by MTT assay
# Type: toxicity, cell-based
This listing pairs compounds with measured IC50 at 48 h.
MEASURED_PARAMETER: IC50 at 48 h (µM)

>>> recorded_number("CC1(C)CC[C@]2(C(=O)OCCCOc3ccc(NC(=O)OCc4ccc(B5OC(C)(C)C(C)(C)O5)cc4)cc3)CC[C@]3(C)[C@H](C(=O)C=C4[C@@]5(C)C=C(C#N)C(=O)C(C)(C)[C@@H]5CC[C@]43C)[C@@H]2C1")
1.5
>>> recorded_number("COc1cc(C(=O)OCCCCOC(=O)[C@]23CCC(C)(C)C[C@H]2[C@H]2C(=O)C=C4[C@@]5(C)C=C(C#N)C(=O)C(C)(C)[C@@H]5CC[C@@]4(C)[C@]2(C)CC3)ccc1OCc1ccc(B2OC(C)(C)C(C)(C)O2)cc1")
9.2
>>> recorded_number("CC1(C)CC[C@]2(C(=O)OCCCOC(=O)Cc3ccc(OCc4ccc(B5OC(C)(C)C(C)(C)O5)cc4)cc3)CC[C@]3(C)[C@H](C(=O)C=C4[C@@]5(C)C=C(C#N)C(=O)C(C)(C)[C@@H]5CC[C@]43C)[C@@H]2C1")
2.2
>>> recorded_number("COc1ccc(/C=C/CC(=O)OCCCOC(=O)[C@]23CCC(C)(C)C[C@H]2[C@H]2C(=O)C=C4[C@@]5(C)C=C(C#N)C(=O)C(C)(C)[C@@H]5CC[C@@]4(C)[C@]2(C)CC3)cc1OCc1ccc(B2OC(C)(C)C(C)(C)O2)cc1")
6.6
>>> recorded_number("CC1(C)CC[C@]2(C(=O)OCCCCCOC(=O)c3ccc(OCc4ccc(B5OC(C)(C)C(C)(C)O5)cc4)cc3)CC[C@]3(C)[C@H](C(=O)C=C4[C@@]5(C)C=C(C#N)C(=O)C(C)(C)[C@@H]5CC[C@]43C)[C@@H]2C1")
2.8
>>> recorded_number("CC1(C)CC[C@]2(C(=O)OCCCCCOc3ccc(NC(=O)OCc4ccc(B5OC(C)(C)C(C)(C)O5)cc4)cc3)CC[C@]3(C)[C@H](C(=O)C=C4[C@@]5(C)C=C(C#N)C(=O)C(C)(C)[C@@H]5CC[C@]43C)[C@@H]2C1")
3
>>> recorded_number("COc1cc(C(=O)OCCCCOC(=O)[C@]23CCC(C)(C)C[C@H]2[C@H]2C(=O)C=C4[C@@]5(C)C=C(C#N)C(=O)C(C)(C)[C@@H]5CC[C@@]4(C)[C@]2(C)CC3)cc(OC)c1OCc1ccc(B2OC(C)(C)C(C)(C)O2)cc1")
4.2
>>> recorded_number("CC1(C)CC[C@]2(C(=O)OCCOC(=O)c3ccc(OCc4ccc(B5OC(C)(C)C(C)(C)O5)cc4)cc3)CC[C@]3(C)[C@H](C(=O)C=C4[C@@]5(C)C=C(C#N)C(=O)C(C)(C)[C@@H]5CC[C@]43C)[C@@H]2C1")
4.7
